test system: SF-295 CNS; assay: NCI tumour cell line growth inhibition, 48 h
readout_name: TGI (µM)
# number only, unit µM dropped from output

Completed entries (count: 5):
{"molecule": "C=C1C(C)C2C(Cc3ccccc3)NC(=O)C23OC(=O)/C=C\\CC(=O)CCC(C)C/C=C/C3C1O (stereo not given)", "readout_name": "TGI", "reported_value": 13.9}
{"molecule": "CC(=O)N1CCN(CCNC(=O)n2cc(-c3ccncc3)c(-c3cc(O)cc(Cl)c3)n2)CC1", "readout_name": "TGI", "reported_value": 25.7}
{"molecule": "O=C(CN(/C=C/C(=O)C(F)(F)F)c1ccc(Cl)cc1)c1ccc(Cl)c(Cl)c1", "readout_name": "TGI", "reported_value": 17.4}
{"molecule": "CC(C)Oc1cccc(N2C(Nc3ccccc3)=Nc3ccncc3S2(=O)=O)c1", "readout_name": "TGI", "reported_value": 95.1}
{"molecule": "Cc1cc(-c2c(F)cc3c4nn([C@H]5CC[C@@H](N(C)C)CC5)c(=O)c-4cn(C4CC4)c3c2F)cc(C)n1", "readout_name": "TGI", "reported_value": 0.717}

Kindly note the recorded TGI for O=C(c1ccc(Cl)cc1)N1CCN=C1c1cc2ccccc2c2ccccc12 , which is 30.5

Kindly note the recorded TGI for COc1cccc2cc(N(C)c3nc(C)nc4c3CCC4)ccc12 , which is 12.5

Kindly note the recorded TGI for COc1cc2nc(-c3cccs3)nc(Nc3cccc(Cl)c3)c2cc1OC , which is 69.2

Kindly note the recorded TGI for CC1=C(SC#N)S(=O)(=O)N(c2ccccc2)C(C)=C1SC#N , which is 67.1

Kindly note the recorded TGI for O=C(/C=C/C=C/c1ccccc1)c1ccco1 , which is 34.6

Kindly note the recorded TGI for Oc1ccc(Oc2cc3c(cc2Oc2ccc(O)cc2)-c2nc-3nc3[nH]c(nc4nc(nc5[nH]c(n2)c2cc(Oc6ccc(O)cc6)c(Oc6ccc(O)cc6)cc52)-c2cc(Oc5ccc(O)cc5)c(Oc5ccc(O)cc5)cc2-4)c2cc(Oc4ccc(O)cc4)c(Oc4ccc(O)cc4)cc32)cc1 , which is 95.6

----------
tested on: SW-620 colon; assay: NCI tumour cell line growth inhibition, 48 h
// TGI lookup, one value per entry

Kindly note the recorded TGI for Cn1cc(C2=C(c3c[nH]c4ccccc34)C(=O)NC2=O)c2ccccc21 , which is > 25 µM

Kindly note the recorded TGI for Oc1ccc(Oc2cc3c(cc2Oc2ccc(O)cc2)-c2nc-3nc3[nH]c(nc4nc(nc5[nH]c(n2)c2cc(Oc6ccc(O)cc6)c(Oc6ccc(O)cc6)cc52)-c2cc(Oc5ccc(O)cc5)c(Oc5ccc(O)cc5)cc2-4)c2cc(Oc4ccc(O)cc4)c(Oc4ccc(O)cc4)cc32)cc1 , which is > 100 µM

Kindly note the recorded TGI for O=C1NC(N2CCOCC2)=N/C1=C\c1ccc(O)cc1 , which is > 100 µM

Kindly note the recorded TGI for CN=C1C=CC(=C(c2ccc(N(C)C)cc2)c2ccc(N(C)C)cc2)C=C1 , which is 1.35 µM

Kindly note the recorded TGI for CCOC1=C(c2ccccc2)N2CCCCC2O1 (stereo unspecified) , which is 36.4 µM

Kindly note the recorded TGI for NC(=S)NC/C=C/Cl , which is > 100 µM

Kindly note the recorded TGI for CC(=O)O[C@H]1CC2C(C3CCC(C(C)CCC(N)=O)[C@]31C)[C@H](OC(C)=O)C[C@@H]1CC3(CC[C@]21C)OOC1(CC[C@]2(C)C4C[C@H](OC(C)=O)[C@]5(C)C(C(C)CCC(N)=O)CCC5C4[C@H](OC(C)=O)C[C@@H]2C1)OO3 (stereo partly specified) , which is > 100 µM

Kindly note the recorded TGI for CCSC1=CC2(O)N(CCc3ccc(OC)c(OC)c3)C(=O)CC2(C(=O)OC)CC1=O (stereo unspecified) , which is 59 µM

Kindly note the recorded TGI for COc1cccc(C2c3cc4c(cc3OC(Nc3ccccc3)C2C)OCO4)c1O (stereo unspecified) , which is 36.8 µM

----------
test system: K-562 leukemia; assay: NCI tumour cell line growth inhibition, 48 h
// TGI lookup, one value per entry

Completed entries (count: 5):
{"compound": "O=[N+]([O-])/C(C(Cl)=C(Cl)Cl)=C(/Nc1cccc2cccnc12)n1nnc2ccccc21", "experimental_target": "K-562 leukemia", "TGI": "> 100 µM"}
{"compound": "N#CC(C(=O)CCCC(=O)Nc1ccc(Cl)cc1Cl)c1ccccc1 (stereo unspecified)", "experimental_target": "K-562 leukemia", "TGI": "> 100 µM"}
{"compound": "Oc1ccc(Oc2cc3c(cc2Oc2ccc(O)cc2)-c2nc-3nc3[nH]c(nc4nc(nc5[nH]c(n2)c2cc(Oc6ccc(O)cc6)c(Oc6ccc(O)cc6)cc52)-c2cc(Oc5ccc(O)cc5)c(Oc5ccc(O)cc5)cc2-4)c2cc(Oc4ccc(O)cc4)c(Oc4ccc(O)cc4)cc32)cc1", "experimental_target": "K-562 leukemia", "TGI": "> 100 µM"}
{"compound": "CCCCCCCC1(c2ccc(N)cc2)CCC(=O)NC1=O (stereo unspecified)", "experimental_target": "K-562 leukemia", "TGI": "> 100 µM"}
{"compound": "S=C1Cc2c(-c3ccc(Br)cc3)cc(-c3ccccc3)nc2-c2ccccc2N1", "experimental_target": "K-562 leukemia", "TGI": "> 100 µM"}

Kindly note the recorded TGI for COC1CC(O)C(OC(=O)c2ccccc2)C(C)O1 (stereo unspecified) , which is > 100 µM

Kindly note the recorded TGI for CCCc1cc(=O)n2c(C(=O)Nc3ccc(F)cc3)c(C(=O)Nc3ccc(F)cc3)sc2n1 , which is > 160 µM

Kindly note the recorded TGI for CC(=O)OCC1OC(n2c(C)c(C)c(C)c(C#N)c2=S)C(OC(C)=O)C(OC(C)=O)C1OC(C)=O (stereo unspecified) , which is > 100 µM

Kindly note the recorded TGI for Cc1nc(Nc2ccccc2Cl)sc1C(=O)CC(=O)C(N)=O , which is > 100 µM

Kindly note the recorded TGI for COc1ccc(-c2nc(-c3nc4ccc(C)cc4[nH]3)cc3c2[nH]c2ccccc23)cc1 , which is > 100 µM

Kindly note the recorded TGI for O=C(NCC(F)(F)F)Nc1cccc(-c2cnc3cc(-c4ccc(F)cc4)ccn23)c1 , which is 10.9 µM

----------
test system: EKVX NSCLC; assay: NCI tumour cell line growth inhibition, 48 h
readout_name: TGI

Completed entries (count: 5):
{"molecule": "Cc1ncc(COP(=O)(O)O)c(/C=C2\\SC(=S)NC2=O)c1O", "readout_name": "TGI", "reported_value": "> 100 µM"}
{"molecule": "CC(=O)OC[C@H]1On2nnnc2[C@H](OC(C)=O)[C@@H](OC(C)=O)[C@@H]1OC(C)=O", "readout_name": "TGI", "reported_value": "> 100 µM"}
{"molecule": "O=C(CN(/C=C/C(=O)C(F)(F)F)c1ccc(Cl)cc1)c1ccc(Cl)c(Cl)c1", "readout_name": "TGI", "reported_value": "29.3 µM"}
{"molecule": "CCN(CC)CCCC(C)Nc1cc(-c2cccc(OC(F)(F)F)c2)nc2ccc(N3CCCC3)cc12 (stereo unspecified)", "readout_name": "TGI", "reported_value": "> 100 µM"}
{"molecule": "O=C1C2C=CC(n3[nH]c(=O)n(Cc4ccccc4)c3=O)CC2C(=O)N1c1ccc(Br)cc1 (stereo unspecified)", "readout_name": "TGI", "reported_value": "> 100 µM"}

Now look at this entry.
Kindly note the recorded TGI for O=C(c1ccc(Cl)cc1)N1CCN=C1c1cc2ccccc2c2ccccc12 , which is 28 µM

----------
// TGI lookup, one value per entry
test system: SW-620 colon; assay: NCI tumour cell line growth inhibition, 48 h

Completed entries (count: 8):
{"compound": "CC(=O)OCC1OC(n2c(C)c(C)c(C)c(C#N)c2=S)C(OC(C)=O)C(OC(C)=O)C1OC(C)=O (configuration not stated)", "readout_name": "TGI", "reported_value": "> 100 µM"}
{"compound": "COc1ccc(C(=O)c2cc(C)c(OC)c(C)c2)c(OC)c1NC(C)=O", "readout_name": "TGI", "reported_value": "> 100 µM"}
{"compound": "COc1ccc2cc(C(C)C(=O)N3C(=O)OCC3(C)C)ccc2c1 (configuration not stated)", "readout_name": "TGI", "reported_value": "> 100 µM"}
{"compound": "O=C(Nc1nn[nH]n1)c1nc(-c2ccccc2)cc(=O)[nH]1", "readout_name": "TGI", "reported_value": "> 100 µM"}
{"compound": "COc1cccc2cc(N(C)c3nc(C)nc4c3CCC4)ccc12", "readout_name": "TGI", "reported_value": "18.6 µM"}
{"compound": "CC(C)OC(=S)Nc1ccc(Cl)c(/C=N/OC(C)(C)C)c1", "readout_name": "TGI", "reported_value": "32 µM"}
{"compound": "COc1cc2nc(-c3cccs3)nc(Nc3cccc(Cl)c3)c2cc1OC", "readout_name": "TGI", "reported_value": "> 100 µM"}
{"compound": "CCCCCCCC1(c2ccc(N)cc2)CCC(=O)NC1=O (configuration not stated)", "readout_name": "TGI", "reported_value": "> 100 µM"}

Observed TGI, SW-620 colon, COc1cc(C2C3=C(COC3=O)N(CCO)c3cc4c(cc32)OCCO4)cc(OC)c1OC (configuration not stated) : > 50 µM

Observed TGI, SW-620 colon, COc1ccc(C2=Nc3ccccc3SC(C)C2)cc1OC (configuration not stated) : 18.6 µM

Observed TGI, SW-620 colon, Cc1cc(-c2nc3cccc(O)c3s2)ccc1N : > 100 µM

Observed TGI, SW-620 colon, COc1ccc2oc3c(OC)c(OC)c(OC)cc3c(=O)c2c1 : > 100 µM
